target: NAD-dependent protein deacetylase sirtuin-2 (Homo sapiens); experiment: Inhibition of human His6-tagged SIRT2 after 12 mins by HPLC analysis in presence of beta-NAD
Sequence (Q8IXJ6 whole entry): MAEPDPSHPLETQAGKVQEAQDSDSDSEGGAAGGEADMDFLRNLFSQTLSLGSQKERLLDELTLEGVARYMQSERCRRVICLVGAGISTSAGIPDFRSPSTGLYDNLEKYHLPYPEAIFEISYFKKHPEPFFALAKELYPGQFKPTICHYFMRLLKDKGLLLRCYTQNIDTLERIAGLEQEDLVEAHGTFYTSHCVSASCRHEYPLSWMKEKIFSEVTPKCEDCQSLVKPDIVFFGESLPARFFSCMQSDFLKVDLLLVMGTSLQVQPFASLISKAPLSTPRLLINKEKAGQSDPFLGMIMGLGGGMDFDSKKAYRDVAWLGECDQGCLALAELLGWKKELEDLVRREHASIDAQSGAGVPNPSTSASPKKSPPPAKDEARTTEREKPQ
QUANTITY_NAME: IC50 (µM)

I: CCCC[C@H](NC(=O)[C@H](CCCCNC(C)=S)NC(=O)[C@H](CCCCNC(C)=O)NC(C)=O)C(N)=O
II: CC(=O)NCCCC[C@H](NC(C)=O)C(=O)N[C@@H](CCCCNC(C)=S)C(=O)N[C@@H](Cc1csc2ccccc12)C(N)=O
III: CC(=O)NCCCC[C@H](NC(=O)[C@H](CCCCNC(C)=S)NC(=O)[C@H](CNC(C)=O)NC(C)=O)C(N)=O
query: Write the entries in order, lowest recorded IC50 first. Please respond with the labels ordered as the question requires.
result: II, I, III
(II: 2.38 µM, I: 5.1 µM, III: 7.76 µM)

P: CC[C@H](NC(C)=O)C(=O)N[C@@H](CCCCNC(C)=S)C(=O)N[C@@H](CCCCNC(C)=O)C(N)=O
Q: CC(=O)NC[C@H](NC(=O)[C@H](CCCCNC(C)=S)NC(=O)[C@H](Cc1ccc(-c2ccccc2)cc1)NC(C)=O)C(N)=O
R: CC(=O)NCCCC[C@H](NC(C)=O)C(=O)N[C@@H](CCCCNC(C)=S)C(=O)N[C@@H](Cc1ccc(-c2ccccc2)cc1)C(N)=O
query: Hello, I need these entries ordered by IC50, highest reading first. Thanks! A complete answer lists every label in the requested sequence.
result: Q, R, P
(Q: 8.32 µM, R: 3.92 µM, P: 1.34 µM)

The values you see were collected from ChEMBL document CHEMBL3608247.
